- Measured target: human MC4R receptor (human, UniProt P32245 1-332)
- Sequence (P32245 whole entry): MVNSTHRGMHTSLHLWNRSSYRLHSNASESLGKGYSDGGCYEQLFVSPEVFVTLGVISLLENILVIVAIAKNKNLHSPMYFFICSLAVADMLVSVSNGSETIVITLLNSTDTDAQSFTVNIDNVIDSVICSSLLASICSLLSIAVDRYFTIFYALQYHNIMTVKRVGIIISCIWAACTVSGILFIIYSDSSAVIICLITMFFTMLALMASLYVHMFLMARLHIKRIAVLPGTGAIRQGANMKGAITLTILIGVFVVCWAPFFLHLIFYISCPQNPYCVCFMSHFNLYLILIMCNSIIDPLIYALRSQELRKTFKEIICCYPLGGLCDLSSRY
- Protocol details: cell-based or functional assay
Starred links: 1 amine or outer side, 2 acyl side, 3 side chain; linkers in the order of their positions; H or OH if unused. Positions of bridges follow the written chain, without caps; N, C: chain ends. Non-standard residues stand in square brackets, D forms with d. Primed or numbered codes have the meaning given here. dTyr(4-OMe)″ = O-methyl-D-tyrosine, COc1ccc(C[C@@H](N[*:1])C(=O)[*:2])cc1; NMeW = CN[C@@H](Cc1c[nH]c2ccccc12)C(=O)O; d(αMeF) = C[C@@](N)(Cc1ccccc1)C(=O)O; NMeH = CN[C@@H](Cc1c[nH]cn1)C(=O)O; NMeR = CN[C@@H](CCCNC(=N)N)C(=O)O; Cit = NC(=O)NCCC[C@H](N)C(=O)O; Orn = NCCC[C@H](N)C(=O)O; Aib = CC(C)(N)C(=O)O
Property label: MC4R selectivity vs MC3R
When you answer, write just the number.

Example cases with answers are listed next.
[
  {
    "Binder": "Ac-RC[Aib]R[dTyr(4-OMe)″]RFC-NH2 (disulfide 2-8) [CTX-1298]",
    "Reported": 0.93
  },
  {
    "Binder": "Ac-RCA[Cit][dF]R[dW]C-NH2 (disulfide 2-8) [CTX-1288]",
    "Reported": 16
  }
]

(Q) Please give the measured MC4R selectivity vs MC3R for this binder: {CH2CO}-[dA][NMeH][dF]R[NMeW]C-NH2 (thioether N-6; SMILES C[C@H]1NC(=O)CSC[C@@H](C(N)=O)NC(=O)[C@H](Cc2c[nH]c3ccccc23)N(C)C(=O)[C@H](CCCNC(=N)N)NC(=O)[C@@H](Cc2ccccc2)NC(=O)[C@H](Cc2c[nH]cn2)N(C)C1=O) [CTX-1203]
(A) 161

(Q) What does the record list as MC4R selectivity vs MC3R for Ac-RC[dA]R[dF][NMeR][dW]C-NH2 (disulfide 2-8; SMILES CC(=O)N[C@@H](CCCNC(=N)N)C(=O)N[C@H]1CSSC[C@@H](C(N)=O)NC(=O)[C@@H](Cc2c[nH]c3ccccc23)NC(=O)[C@H](CCCNC(=N)N)N(C)C(=O)[C@@H](Cc2ccccc2)NC(=O)[C@H](CCCNC(=N)N)NC(=O)[C@@H](C)NC1=O) [CTX-1284] ?
(A) 8.11

(Q) # input binder: Ac-RC[Aib][Orn][dF]RFC-NH2 (disulfide 2-8; SMILES CC(=O)N[C@@H](CCCNC(=N)N)C(=O)N[C@H]1CSSC[C@@H](C(N)=O)NC(=O)[C@H](Cc2ccccc2)NC(=O)[C@H](CCCNC(=N)N)NC(=O)[C@@H](Cc2ccccc2)NC(=O)[C@H](CCCN)NC(=O)C(C)(C)NC1=O) [CTX-1602] ; wanted: its MC4R selectivity vs MC3R
(A) 3.44

(Q) Consider the binder Ac-RC[dA]R[d(αMeF)]RWC-NH2 (disulfide 2-8; SMILES CC(=O)N[C@@H](CCCNC(=N)N)C(=O)N[C@H]1CSSC[C@@H](C(N)=O)NC(=O)[C@H](Cc2c[nH]c3ccccc23)NC(=O)[C@H](CCCNC(=N)N)NC(=O)[C@@](C)(Cc2ccccc2)NC(=O)[C@H](CCCNC(=N)N)NC(=O)[C@@H](C)NC1=O) [CTX-1278] and give its measured MC4R selectivity vs MC3R.
(A) 12

(Q) So what does the record say about MC4R selectivity vs MC3R for Ac-RC[Aib]R[dF][Cit]WC-NH2 (disulfide 2-8) [CTX-1270] ?
(A) 1.88

(Q) Would you mind telling me what MC4R selectivity vs MC3R value was observed for Ac-C[Aib]R[dF]RWC-NH2 (disulfide 1-7; SMILES CC(=O)N[C@H]1CSSC[C@@H](C(N)=O)NC(=O)[C@H](Cc2c[nH]c3ccccc23)NC(=O)[C@H](CCCNC(=N)N)NC(=O)[C@@H](Cc2ccccc2)NC(=O)[C@H](CCCNC(=N)N)NC(=O)C(C)(C)NC1=O) [CTX-1632] ?
(A) 36
